Each recorded value in this set is attributed to patent US20160184246A1.

Test: Solubility of agomelatine in water or aqueous isopropanol (IPA)
Format: physicochemical
Settings: 90 v/v % aqueous isopropanol, aqueous with cosolvent or surfactant or cyclodextrin; 90 v/v % aqueous IPA, 32° C.

[
  {
    "Smiles string": "COc1ccc2cccc(CCNC(C)=O)c2c1",
    "solubility": "> 150 mg/mL"
  }
]

---

Assay: Solubility of agomelatine in water or aqueous isopropanol (IPA)
Type: physicochemical
Conditions: 75 v/v % aqueous isopropanol, aqueous with cosolvent or surfactant or cyclodextrin; 75 v/v % aqueous IPA, 32° C.

[
  {
    "Smiles string": "COc1ccc2cccc(CCNC(C)=O)c2c1",
    "solubility": "139 mg/mL"
  }
]
